Origin of the recorded values: patent US7772177B2

- TARGET SYSTEM: caspase-3 inhibited by linker BIR2-BIR3-RING of XIAP (Homo sapiens)
- Construct: E. coli AD494 (His-caspase-3)
- METHOD SUMMARY: Caspase-3 linker-BIR2-BIR3-RING derepression assay
- Description: In order to determine the relative activity of the selected compound against BIR2, an in vitro assay was used where caspase-3 was inhibited by linker-BIR2 or linker BIR2-BIR3-RING of XIAP. […] Caspase 3 activity was measured by overlaying 25 ul of a 0.4 mM DEVD-AMC solution. […] The fluorescent AMC released from the caspase-3 hydrolysis of the substrate was measured in a TECAN spectrophotometer at 360 nm excitation and 444 nm emission, on a kinetic cycle of 30 minutes with readings taken every 2 minutes. […]
PROPERTY LABEL: IC50

Here is how some molecules turned out for IC50.
Which IC50 value belongs to CC[C@H](N)C(=O)N[C@H](C(=O)N1CCC[C@H]1CN([C@H](C)c1ccccc1)S(C)(=O)=O)C(C)C [Compound 6] ?
> 10 µM

Which IC50 value belongs to CC(C)[C@H](NC(=O)[C@H](C)N)C(=O)N1CCC[C@H]1CN(CCc1ccccc1)C(=O)Cc1ccccc1 [Compound 23] ?
> 10 µM

Which IC50 value belongs to COCC(=O)N(CCc1ccccc1)C[C@@H]1CCCN1C(=O)[C@@H](NC(=O)[C@H](C)N)C(C)C [Compound 25] ?
> 10 µM

Continuing:
Which IC50 value belongs to CC[C@H](N)C(=O)N[C@H](C(=O)N1CCC[C@H]1CN(CCc1ccccc1)C(C)=O)C(C)C [Compound 5] ?
< 10 µM

* * *

- TARGET SYSTEM: GST-XIAP BIR3RING (Homo sapiens, UniProt P98170)
- Construct: made in house; host or cells: E. coli DH5-alpha
- Sequence (P98170 246-497): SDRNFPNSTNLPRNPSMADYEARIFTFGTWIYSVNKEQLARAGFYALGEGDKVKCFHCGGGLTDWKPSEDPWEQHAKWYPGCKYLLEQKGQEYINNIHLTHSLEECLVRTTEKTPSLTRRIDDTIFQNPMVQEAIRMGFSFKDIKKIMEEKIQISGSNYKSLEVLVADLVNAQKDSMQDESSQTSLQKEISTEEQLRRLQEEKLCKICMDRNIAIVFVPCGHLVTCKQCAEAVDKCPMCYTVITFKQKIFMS
- METHOD SUMMARY: Fluorescence polarization-based competition assay, XIAP Bir3-RING
- Assay type: binding
PROPERTY LABEL: IC50

Here is how some compounds turned out for IC50.
Which IC50 value belongs to CN[C@@H](C)C(=O)N[C@H](C(=O)N1CCC[C@H]1CN(CCc1ccccc1)C(=O)[C@H](N)Cc1ccccc1)C(C)(C)C [Compound 42] ?
< 1000 nM

Which IC50 value belongs to CN[C@@H](C)C(=O)N[C@H](C(=O)N1CCC[C@H]1CN(CCc1ccccc1)C(=O)CCN)C(C)(C)C [Compound 33] ?
< 1000 nM

Which IC50 value belongs to CC(C)[C@H](NC(=O)[C@H](C)N)C(=O)N1CCC[C@H]1CN(CCc1ccccc1)C(=O)CN [Compound 30] ?
< 1000 nM

Which IC50 value belongs to CN[C@@H](C)C(=O)N[C@H](C(=O)N1CCC[C@H]1CN(CCc1ccccc1)C(=O)CCc1ccccc1)C(C)(C)C [Compound 27] ?
< 1000 nM

Which IC50 value belongs to CC(C)[C@H](NC(=O)[C@H](C)N)C(=O)N1CCC[C@H]1CS(=O)(=O)CCc1ccccc1 [Compound 67] ?
> 10000 nM

Which IC50 value belongs to CN[C@@H](C)C(=O)N[C@H](C(=O)N1CCC[C@H]1CN(CCc1ccccc1)C(=O)[C@H](C)N)C(C)(C)C [Compound 37] ?
< 1000 nM

Which IC50 value belongs to CN[C@@H](C)C(=O)N[C@H](C(=O)N1CCC[C@H]1CN(C[C@H](C)c1ccccc1)C(=O)OCc1ccccc1)C(C)(C)C [Compound 60] ?
< 1000 nM

Which IC50 value belongs to CN[C@@H](C)C(=O)N[C@@H](CCCN)C(=O)N1CCC[C@H]1CN(CCc1ccccc1)C(=O)CCc1ccccc1 [Compound 49] ?
< 1000 nM

Which IC50 value belongs to CC(C)[C@H](NC(=O)[C@H](C)N)C(=O)N1CCC[C@H]1CN(CCCCO)CCc1ccccc1 [Compound 29] ?
< 10000 nM

Which IC50 value belongs to CN[C@@H](C)C(=O)N[C@H](C(=O)N1CCC[C@H]1CN(CCc1ccccc1)C(=O)[C@@H](C)N)C(C)(C)C [Compound 36] ?
< 10000 nM

Continuing:
Which IC50 value belongs to CC(C)[C@H](NC(=O)[C@H](C)N)C(=O)N1CCC[C@H]1CNCCc1ccccc1 [Compound 18] ?
< 1000 nM

Which IC50 value belongs to CNCC(=O)N(CCc1ccccc1)C[C@@H]1CCCN1C(=O)[C@@H](NC(=O)[C@H](C)NC)C(C)(C)C [Compound 34] ?
< 1000 nM

Which IC50 value belongs to CC[C@@H](N)C(=O)N(CCc1ccccc1)C[C@@H]1CCCN1C(=O)[C@@H](NC(=O)[C@H](C)NC)C(C)(C)C [Compound 46] ?
< 1000 nM

Which IC50 value belongs to CC(C)[C@H](NC(=O)[C@H](C)N)C(=O)N1CCC[C@H]1CN(CCc1ccccc1)S(C)(=O)=O [Compound 17] ?
< 10000 nM

* * *

- TARGET SYSTEM: XIAP Bir2-Bir3-RING (GST-linker BIR2 BIR3RING) (Homo sapiens)
- Construct: made in house; host or cells: E. coli DH5-alpha
- METHOD SUMMARY: Caspase de-repression assay using cellular extracts (apoptosome), XIAP Bir2-Bir3-RING
- Format: biochemical
- CONDITION INFO: 293 cell S100 extract
Measured IC50, listed per entry for reference.

Which IC50 value belongs to CC[C@H](N)C(=O)N[C@H](C(=O)N1CCC[C@H]1CN([C@H](C)c1ccccc1)S(C)(=O)=O)C(C)C [Compound 6] ?
< 10 µM

Which IC50 value belongs to CC(C)[C@H](NC(=O)[C@H](C)N)C(=O)N1CCC[C@H]1CN(CCc1ccccc1)C(=O)CCc1ccccc1 [Compound 21] ?
> 10 µM

Which IC50 value belongs to CCCC(=O)N(CCc1ccccc1)C[C@@H]1CCCN1C(=O)[C@@H](NC(=O)[C@H](C)N)C(C)C [Compound 22] ?
> 10 µM

Continuing:
Which IC50 value belongs to CC(C)[C@H](NC(=O)[C@H](C)N)C(=O)N1CCC[C@H]1CN(CCc1ccccc1)C(=O)CN [Compound 30] ?
> 10 µM

* * *

Measured pIC50, listed per entry for reference.
- TARGET SYSTEM: XIAP Bir3-RING (GST-BIR 3RING) (Homo sapiens)
- Construct: made in house; host or cells: E. coli DH5-alpha
- Sequence (P98170 246-497): as above
- METHOD SUMMARY: Caspase de-repression assay using cellular extracts (apoptosome), XIAP Bir3-RING
- Assay type: biochemical
- CONDITION INFO: 293 cell S100 extract
pIC50: −log10 of the molar value.

Here is how some compounds turned out for pIC50.
Write down the reported pIC50 of `CC(C)[C@H](NC(=O)[C@H](C)N)C(=O)N1CCC[C@H]1CN(CCCCO)CCc1ccccc1` , test system: XIAP Bir3-RING (GST-BIR 3RING) (Homo sapiens).
> 6.00

Write down the reported pIC50 of `CC[C@H](N)C(=O)N[C@H](C(=O)N1CCC[C@H]1CNCCc1ccccc1)C(C)C` , test system: XIAP Bir3-RING (GST-BIR 3RING) (Homo sapiens).
< 5.00

Write down the reported pIC50 of `CC[C@H](N)C(=O)N[C@H](C(=O)N1CCC[C@H]1CNC(=O)Cc1ccccc1)C(C)C` , test system: XIAP Bir3-RING (GST-BIR 3RING) (Homo sapiens).
> 5.00

Write down the reported pIC50 of `CN[C@@H](C)C(=O)N[C@H](C(=O)N1CCC[C@H]1CNCCc1ccccc1)C(C)(C)C` , test system: XIAP Bir3-RING (GST-BIR 3RING) (Homo sapiens).
> 6.00

Write down the reported pIC50 of `CC(=O)N(CCCc1ccccc1)C[C@@H]1CCCN1C(=O)[C@@H](NC(=O)[C@H](C)N)C(C)C` , test system: XIAP Bir3-RING (GST-BIR 3RING) (Homo sapiens).
> 6.00

Continuing:
Write down the reported pIC50 of `CC(C)[C@H](NC(=O)[C@H](C)N)C(=O)N1CCC[C@H]1CN(CCc1ccccc1)C(=O)COc1ccccc1` , test system: XIAP Bir3-RING (GST-BIR 3RING) (Homo sapiens).
> 6.00

Write down the reported pIC50 of `CC(C)[C@H](NC(=O)[C@H](C)N)C(=O)N1CCC[C@H]1CN(CCc1ccccc1)S(C)(=O)=O` , test system: XIAP Bir3-RING (GST-BIR 3RING) (Homo sapiens).
> 6.00

Write down the reported pIC50 of `CN[C@@H](C)C(=O)N[C@H](C(=O)N1CCC[C@H]1CN(CCc1ccccc1)C(=O)CCC(=O)O)C(C)(C)C` , test system: XIAP Bir3-RING (GST-BIR 3RING) (Homo sapiens).
> 6.00

Write down the reported pIC50 of `CC(C)[C@H](NC(=O)[C@H](C)N)C(=O)N1CCC[C@H]1CN(C(=O)C(F)(F)F)[C@H]1CCCc2ccccc21` , test system: XIAP Bir3-RING (GST-BIR 3RING) (Homo sapiens).
< 5.00

Write down the reported pIC50 of `CN[C@@H](C)C(=O)N[C@H](C(=O)N1CCC[C@H]1CN(CCc1ccccc1)C(=O)C(F)(F)F)C(C)(C)C` , test system: XIAP Bir3-RING (GST-BIR 3RING) (Homo sapiens).
> 5.00
